assay system: RORγt (hRORC LBD) (Homo sapiens)
Sequence (P51449 269-508 limits assumed): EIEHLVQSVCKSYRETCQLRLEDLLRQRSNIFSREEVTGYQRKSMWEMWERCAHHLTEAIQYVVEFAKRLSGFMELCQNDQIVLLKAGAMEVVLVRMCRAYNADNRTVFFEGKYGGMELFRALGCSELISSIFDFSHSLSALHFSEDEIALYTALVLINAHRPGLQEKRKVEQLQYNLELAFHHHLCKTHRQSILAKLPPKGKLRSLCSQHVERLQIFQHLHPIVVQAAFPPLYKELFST
assay notes: RGA Assay: nuclear receptor transactivation assay, RORγt transactivation of a luciferase reporter
protocol conditions: transiently transfected HEK 293 cells, Gal4DBD hRORC LBD, 20-24 hours incubation
# pIC50 per entry
Please keep in mind that pIC50 is minus log10 of the molar concentration; only the number is needed.

# input Report pIC50 for `CNS(=O)(=O)c1ccc(CNC(=O)N2CC3(CCCC3)c3cc(-c4cc(F)ccc4C(=O)OC)ccc32)cc1` please.
# output 6.03

# input Report pIC50 for `CNS(=O)(=O)c1ccc(CNC(=O)N2CC3(CCCC3)c3cc(-c4ccc(C)cc4C)ccc32)cc1` please.
# output 6.06

More entries:
# input Report pIC50 for `COc1ncnc(C)c1-c1ccc2c(c1)C1(CCCC1)CN2C(=O)NCc1ccc(S(C)(=O)=O)cc1` please.
# output 5.77

# input Report pIC50 for `CNS(=O)(=O)c1ccc(CNC(=O)N2CC3(CCCC3)c3cc(-c4cnc(OC)cc4C)ccc32)cc1` please.
# output 5.72

* * *

assay system: RORγt (hRORC LBD) (Homo sapiens)
Sequence (P51449 269-508 limits assumed): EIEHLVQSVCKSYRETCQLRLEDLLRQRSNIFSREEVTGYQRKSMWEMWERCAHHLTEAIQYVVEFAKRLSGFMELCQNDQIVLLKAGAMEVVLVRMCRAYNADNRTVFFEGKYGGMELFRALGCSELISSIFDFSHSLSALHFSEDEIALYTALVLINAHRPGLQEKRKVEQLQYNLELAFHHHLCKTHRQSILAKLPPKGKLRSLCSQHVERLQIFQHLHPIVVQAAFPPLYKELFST
assay notes: RGA Assay: nuclear receptor transactivation assay, RORγt transactivation of a luciferase reporter
protocol conditions: transiently transfected HEK 293 cells, Gal4DBD hRORC LBD, 20-24 hours incubation
The label Fulfilled is reserved for IC50 strictly under 1000 nM; Not fulfilled covers values equal to or above it.

The examples below pair each entry with its known result.
# input Determine whether this compound shows IC50 lower than 1000 nM (ties excluded): `CNS(=O)(=O)c1ccc(CNC(=O)N2CC(C)(C)c3cc(-c4ccc(OC)cc4C(F)(F)F)ccc32)cc1`
# output Fulfilled

# input Determine whether this compound shows IC50 lower than 1000 nM (ties excluded): `CNS(=O)(=O)c1ccc(CNC(=O)N2CC3(CCCC3)c3cc(-c4cc(C(C)=O)ccc4C)ccc32)cc1`
# output Fulfilled

# input Determine whether this compound shows IC50 lower than 1000 nM (ties excluded): `COCCOc1cc(C#N)ccc1CNC(=O)N1CC2(CCCC2)c2cc(-c3ccc(OC)cc3C(F)(F)F)ccc21`
# output Not fulfilled

# input Determine whether this compound shows IC50 lower than 1000 nM (ties excluded): `CCS(=O)(=O)c1ccc(CNC(=O)N2CC3(CCC3)c3cc(-c4c(OC)ncnc4C4CC4)ccc32)cc1`
# output Fulfilled

# input Determine whether this compound shows IC50 lower than 1000 nM (ties excluded): `CNS(=O)(=O)c1ccc(CNC(=O)N2CC3(CCCC3)c3cc(C4=C(C)CCCC4)ccc32)cc1`
# output Fulfilled

# input Determine whether this compound shows IC50 lower than 1000 nM (ties excluded): CCS(=O)(=O)c1ccc(CNC(=O)N2CC(C)(C3CC3)c3cc(-c4c(OC)ncnc4C4CC4)ccc32)cc1 (centres unmarked)
# output Fulfilled

# input Determine whether this compound shows IC50 lower than 1000 nM (ties excluded): `CCS(=O)(=O)c1ccc(CNC(=O)N2CC3(CCCC3)c3cc(-c4cncnc4C(C)C)ccc32)cc1`
# output Fulfilled

# input Determine whether this compound shows IC50 lower than 1000 nM (ties excluded): `CNS(=O)(=O)c1ccc(CNC(=O)N2CC3(CCCC3)c3cc(-c4cc(O)ccc4C)ccc32)cc1`
# output Not fulfilled

# input Determine whether this compound shows IC50 lower than 1000 nM (ties excluded): `COc1ccc(-c2ccc3c(c2)C2(CCCC2)CN3C(=O)NCc2ccc(C#N)cc2OC)c(C(F)(F)F)c1`
# output Fulfilled

# input Determine whether this compound shows IC50 lower than 1000 nM (ties excluded): `CCS(=O)(=O)c1ccc(CNC(=O)N2CC3(CCCC3)c3cc(-c4ccc(O)cc4C)ccc32)cc1`
# output Fulfilled

More entries:
# input Determine whether this compound shows IC50 lower than 1000 nM (ties excluded): `CNS(=O)(=O)c1ccc(CNC(=O)N2CC3(CCCC3)c3cc(-c4ccc(CO)cc4C)ccc32)cc1`
# output Not fulfilled

# input Determine whether this compound shows IC50 lower than 1000 nM (ties excluded): `CNS(=O)(=O)c1ccc(CNC(=O)N2CC3(CCCC3)c3cc(-c4ccc5c(cnn5C)c4C)ccc32)cc1`
# output Not fulfilled

# input Determine whether this compound shows IC50 lower than 1000 nM (ties excluded): `CCOc1ccc(-c2ccc3c(c2)C2(CCCC2)CN3C(=O)NCc2ccc(S(=O)(=O)NC)cc2)c(C)c1`
# output Fulfilled

# input Determine whether this compound shows IC50 lower than 1000 nM (ties excluded): CCCC1(C)CN(C(=O)NCc2ccc(S(=O)(=O)NC)cc2)c2ccc(-c3ccc(OC)cc3C(F)(F)F)cc21 (centres unmarked)
# output Fulfilled

# input Determine whether this compound shows IC50 lower than 1000 nM (ties excluded): `CNS(=O)(=O)c1ccc(CNC(=O)N2CC3(CCCC3)c3cc(-c4ccccc4C)ccc32)cc1`
# output Fulfilled

# input Determine whether this compound shows IC50 lower than 1000 nM (ties excluded): `CCS(=O)(=O)c1ccc(CNC(=O)N2CC3(CCCC3)c3cc(-c4ccc(CO)cc4C)ccc32)cc1`
# output Not fulfilled

# input Determine whether this compound shows IC50 lower than 1000 nM (ties excluded): CCC1(C)CN(C(=O)NCc2ccc(S(=O)(=O)NC)cc2)c2ccc(-c3ccc(OC)cc3C(F)(F)F)cc21 (centres unmarked)
# output Fulfilled

# input Determine whether this compound shows IC50 lower than 1000 nM (ties excluded): `CNS(=O)(=O)c1ccc(CNC(=O)N2CC3(CCCC3)c3cc(-c4cc5c(cnn5C)cc4C)ccc32)cc1`
# output Fulfilled

# input Determine whether this compound shows IC50 lower than 1000 nM (ties excluded): `CCS(=O)(=O)c1ccc(CNC(=O)N2CC3(CCCC3)c3cc(-c4ccc(OC)cc4C(F)(F)F)ccc32)c(OC)c1`
# output Fulfilled

# input Determine whether this compound shows IC50 lower than 1000 nM (ties excluded): `CNS(=O)(=O)c1ccc(CNC(=O)N2CC3(CCCC3)c3cc(-c4cc(F)ccc4C)ccc32)cc1`
# output Fulfilled

# input Determine whether this compound shows IC50 lower than 1000 nM (ties excluded): `CNS(=O)(=O)c1ccc(CNC(=O)N2CC3(CCCC3)c3cc(-c4cccc5[nH]nc(C)c45)ccc32)cc1`
# output Not fulfilled

# input Determine whether this compound shows IC50 lower than 1000 nM (ties excluded): `CNS(=O)(=O)c1ccc(CNC(=O)N2CC3(CCCC3)c3cc(-c4cc(C#N)ccc4C)ccc32)cc1`
# output Not fulfilled

# input Determine whether this compound shows IC50 lower than 1000 nM (ties excluded): `CCS(=O)(=O)c1ccc(CNC(=O)N2C[C@](C)(C3CC3)c3cc(-c4c(OC)ncnc4C4CC4)ccc32)cc1`
# output Fulfilled

# input Determine whether this compound shows IC50 lower than 1000 nM (ties excluded): `CNS(=O)(=O)c1ccc(CNC(=O)N2CC3(CCCC3)c3cc(-c4c(C)ccc(F)c4CC#N)ccc32)cc1`
# output Fulfilled

# input Determine whether this compound shows IC50 lower than 1000 nM (ties excluded): `CNS(=O)(=O)c1ccc(CNC(=O)N2CC3(CCCC3)c3cc(-c4cc(F)c(C#N)cc4C)ccc32)cc1`
# output Not fulfilled

# credit: patent US9745267B2
